Biological target: Tel-TrkB (Homo sapiens)
Construct: dimerization domain of Tel (ETV6) transcription factor (fusion partner, human ETV6 P41212); expressed in transfected cells; host or cells: luciferase expressing Ba/F3 murine hematopoietic progenitor cells; the other entry of the earlier key: ETV6 (P41212, Transcription factor ETV6)
Sequence (Q16620 538-822 limits assumed): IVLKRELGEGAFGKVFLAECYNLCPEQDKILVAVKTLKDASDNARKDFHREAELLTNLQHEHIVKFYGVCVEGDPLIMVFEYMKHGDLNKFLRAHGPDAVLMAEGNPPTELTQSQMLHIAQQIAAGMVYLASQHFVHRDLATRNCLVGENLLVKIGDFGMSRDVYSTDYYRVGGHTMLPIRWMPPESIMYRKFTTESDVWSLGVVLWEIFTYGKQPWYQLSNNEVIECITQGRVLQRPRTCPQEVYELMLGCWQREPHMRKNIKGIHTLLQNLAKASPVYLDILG
Experiment: Inhibition of proliferation of Ba/F3 cells expressing Tel-TrkB (BaF3/Tel-TrkB)
Type: cell-based
Conditions: Ba/F3 Tel-TrkB cells; read-out: Ba/F3 Tel-TrkB IC 50
ASSAY_METRIC: IC50 (nM)

The cases that follow already have their IC50 on record.
Fc1cccc(C2CCCN2c2ccc3ncc(-c4csc(N5CCCCC5)n4)n3n2)c1 (stereo not drawn)
760
N#Cc1cccc(-n2cnc3ccc(N4CCSC4c4cc(F)ccc4F)nc32)c1 (stereo not drawn)
22
CC1(c2cccc(F)c2)CCCN1c1ccc2ncc(-c3ccc(C#N)cc3)n2n1 (stereo not drawn)
129
O=C(NOCC1CC1)C1CCN(c2cccc(-c3cnc4ccc(N5CCOCC5c5cccc(F)c5)nn34)n2)CC1 (stereo not drawn)
23
Cc1cnc(-c2cccc(-c3cnc4ccc(N5CCCC5c5cccc(F)c5)nn34)n2)[nH]1 (stereo not drawn)
6.6
NC(=O)C1CCCN(c2cccc(-c3cnc4ccc(N5CCOCC5c5cccc(F)c5)nn34)n2)C1 (stereo not drawn)
39

A. COc1ncc(-c2cnc3ccc(N4CCCC4c4cccc(F)c4)nn23)s1 (stereo not drawn)
B. N#Cc1cccc(-c2cnc3ccc(N4CCCC4c4ccccc4)nn23)c1 (stereo not drawn)
C. OC1CCN(c2cccc(-c3cnc4ccc(N5CCOCC5c5cccc(F)c5)nn34)n2)CC1 (stereo not drawn)
Descending sort on IC50 required. Kindly provide the labels arranged according to the requested ordering. A, B, C

1. Fc1cccc([C@H]2CCCN2c2ccc3ncc(-c4cccc(N5CCN(c6cccnc6)CC5)n4)n3n2)c1
2. Fc1cccc(C2COCCN2c2ccc3ncc(-c4cccc(OC5CCNCC5)n4)n3n2)c1 (stereo not drawn)
3. N#Cc1cc(-c2cnc3ccc(N4CCOCC4c4cccc(F)c4)nn23)ccc1N1CCC(O)CC1 (stereo not drawn)
4. Fc1cccc(C2CCCN2c2ccc3ncc(-c4csc(CN5CCNCC5)n4)n3n2)c1 (stereo not drawn)
Order by IC50, ascending. Kindly provide the labels arranged according to the requested ordering. 1, 2, 3, 4

I. N#Cc1cc(-c2cnc3ccc(N4CCCC4c4cc(F)ccc4F)nn23)ccc1N1CCOCC1 (stereo not drawn)
II. Fc1cccc(C2COCCN2c2ccc3ncc(-c4ccc(CN5CCOCC5)cn4)n3n2)c1 (stereo not drawn)
Which record would sort first by descending IC50, I or II ? # respond with the chosen item's label II

###

Biological target: Tel-TrkA (Homo sapiens)
Construct: dimerization domain of Tel (ETV6) transcription factor (fusion partner, human ETV6 P41212); expressed in transfected cells; host or cells: luciferase expressing Ba/F3 murine hematopoietic progenitor cells; the other entry of the earlier key: ETV6 (P41212, Transcription factor ETV6)
Sequence (P04629 510-796 limits assumed): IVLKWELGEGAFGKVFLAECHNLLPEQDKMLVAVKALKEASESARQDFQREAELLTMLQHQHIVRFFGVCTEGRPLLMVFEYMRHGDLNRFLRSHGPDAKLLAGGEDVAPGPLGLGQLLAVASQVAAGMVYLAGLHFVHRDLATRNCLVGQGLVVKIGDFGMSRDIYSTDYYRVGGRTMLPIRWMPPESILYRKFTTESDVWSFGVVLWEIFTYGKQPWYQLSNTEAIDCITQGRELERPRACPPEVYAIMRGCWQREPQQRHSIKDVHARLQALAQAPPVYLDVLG
Assay: Inhibition of proliferation of Ba/F3 cells expressing Tel-TrkA (BaF3/Tel-TrkA, luciferase/Bright Glo readout)
Type: cell-based
Conditions: read-out: Ba/F3 Tel-TrkA IC 50
ASSAY_METRIC: IC50 (nM)

OCC(O)CNc1cccc(-c2cnc3ccc(N4CCCC4c4cccc(F)c4)nn23)n1 (stereo not shown)
6.8

1. O=C(O)C1CN(c2cccc(-c3cnc4ccc(N5CCCC5c5cccc(F)c5)nn34)n2)C1 (stereo not shown)
2. Fc1cccc(C2CCCN2c2ccc3ncc(-c4cccc(-c5ccnc(N6CC7(COC7)C6)n5)n4)n3n2)c1 (stereo not shown)
3. Fc1cccc(C2COCCN2c2ccc3ncc(-c4cccc(N5CCOCC5)n4)n3n2)c1 (stereo not shown)
4. N#Cc1cccc(-c2cnc3ccc(N4CCCC4c4ccccc4)nn23)c1 (stereo not shown)
Descending sort on IC50 required. Kindly provide the labels arranged according to the requested ordering. 4, 2, 3, 1
(4: 86 nM, 2: 13 nM, 3: 6.9 nM, 1: 3 nM)

a. OC1CCN(c2cccc(-c3cnc4ccc(N5CCOCC5c5cccc(F)c5)nn34)n2)CC1 (stereo not shown)
b. CC(C)(C)OC(=O)N1CCN(c2cccc(-c3cnc4ccc(N5CCOCC5c5cccc(F)c5)nn34)n2)CC1 (stereo not shown)
From the items above, decide which of a and b has the lower IC50 reading. # respond with the chosen item's label a
(a: 17 nM, b: 100 nM)

###

Target: full length rTrkA and mNGF (Rattus norvegicus, UniProt P35739)
Construct: co-expressing full length rTrkA and mNGF; expressed in transfected cells; host or cells: Ba/F3 cells
Sequence (P35739 33-799): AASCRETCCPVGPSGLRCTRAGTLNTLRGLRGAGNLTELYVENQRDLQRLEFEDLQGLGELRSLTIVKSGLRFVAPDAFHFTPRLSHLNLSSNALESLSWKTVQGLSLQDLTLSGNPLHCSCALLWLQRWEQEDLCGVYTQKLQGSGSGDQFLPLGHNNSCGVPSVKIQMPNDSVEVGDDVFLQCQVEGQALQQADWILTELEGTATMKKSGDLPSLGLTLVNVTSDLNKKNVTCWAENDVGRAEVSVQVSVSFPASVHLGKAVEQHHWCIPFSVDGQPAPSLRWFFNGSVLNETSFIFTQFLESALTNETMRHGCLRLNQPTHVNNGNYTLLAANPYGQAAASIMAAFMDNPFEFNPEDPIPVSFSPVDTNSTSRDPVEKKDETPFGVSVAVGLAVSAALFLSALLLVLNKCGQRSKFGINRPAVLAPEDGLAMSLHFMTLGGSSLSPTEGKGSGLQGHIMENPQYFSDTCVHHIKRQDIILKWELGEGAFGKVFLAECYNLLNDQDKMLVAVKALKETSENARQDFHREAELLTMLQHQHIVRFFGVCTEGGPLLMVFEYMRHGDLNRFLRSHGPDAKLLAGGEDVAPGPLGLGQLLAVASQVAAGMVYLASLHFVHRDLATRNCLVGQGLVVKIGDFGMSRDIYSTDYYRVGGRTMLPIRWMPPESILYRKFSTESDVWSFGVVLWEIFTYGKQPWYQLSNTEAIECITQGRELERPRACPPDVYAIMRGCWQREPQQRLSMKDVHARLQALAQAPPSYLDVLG
Sequence (P01139 122-241 partner): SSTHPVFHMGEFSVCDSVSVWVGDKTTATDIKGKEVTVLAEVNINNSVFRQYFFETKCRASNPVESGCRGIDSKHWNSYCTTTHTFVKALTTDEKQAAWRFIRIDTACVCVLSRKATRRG
Experiment: Inhibition of proliferation of Ba/F3 cells co-expressing full length rTrkA and mNGF (BaF3/TrkA-NFG)
Assay type: cell-based
Conditions: BaF3 TRKA-NGF cells, CTG readout
ASSAY_METRIC: BaF3 TRKA-NGF CTG IC 50 (nM)

The cases that follow already have their BaF3 TRKA-NGF CTG IC 50 on record.
CC(C)NC(=O)CN1CCN(c2cccc(-c3cnc4ccc(N5CCCC5c5cccc(F)c5)nn34)n2)CC1 (stereo not shown) [Table 7-Compound 96]
3
Cc1ccc(C)c(C2CCCN2c2ccc3ncc(-c4cccc(C(=O)O)n4)n3n2)c1 (stereo not shown)
1730
CC(=O)N[C@@H]1CCN(c2cccc(-c3cnc4ccc(N5CCCC5c5cccc(F)c5)nn34)n2)C1 (stereo partly shown)
4
Fc1ccc(N2CCN(c3cccc(-c4cnc5ccc(N6CCC[C@@H]6c6cccc(F)c6)nn45)n3)CC2)cc1
101

1. Fc1cccc(C2CCCN2c2ccc3ncc(-c4cncc(Cl)n4)n3n2)c1 (stereo not shown)
2. O=C(NOCC1CC1)C1CCN(c2cccc(-c3cnc4ccc(N5CCOCC5c5cccc(F)c5)nn34)n2)CC1 (stereo not shown)
3. O=C1CN(c2cccc(-c3cnc4ccc(N5CCCC5c5cccc(F)c5)nn34)n2)CCN1 (stereo not shown)
Descending sort on BaF3 TRKA-NGF CTG IC 50 required. Kindly provide the labels arranged according to the requested ordering. 1, 2, 3
(1: 180 nM, 2: 35 nM, 3: 2.2 nM)

###

Target: Tel-TrkB (Homo sapiens)
Construct: dimerization domain of Tel (ETV6) transcription factor (fusion partner, human ETV6 P41212); expressed in transfected cells; host or cells: luciferase expressing Ba/F3 murine hematopoietic progenitor cells; the other entry of the earlier key: ETV6 (P41212, Transcription factor ETV6)
Assay: Inhibition of proliferation of Ba/F3 cells expressing Tel-TrkB (BaF3/Tel-TrkB)
Format: cell-based
Settings: Ba/F3 Tel-TrkB cells; read-out: Ba/F3 Tel-TrkB IC 50
pIC50: −log10 of the molar value.
ASSAY_METRIC: pIC50

Fc1cccc(C2CCCN2c2ccc3ncc(-c4cccc(C5OCCO5)n4)n3n2)c1 (stereo not shown)
8.32
CN(C)C(=O)CN1CCN(c2ccc(-c3cnc4ccc(N5CCOCC5c5cccc(F)c5)nn34)cc2C#N)CC1 (stereo not shown)
8.66

a. Fc1cccc(C2CCCN2c2ccc3ncc(-c4cc5ccccc5nc4F)n3n2)c1 (stereo not shown)
b. Fc1cccc(C2CCCN2c2ccc3ncc(-c4cncc(Cl)n4)n3n2)c1 (stereo not shown)
Which record would sort first by descending pIC50, a or b ? # respond with the chosen item's label b

a. O=C(NCCO)c1ccc(-c2cnc3ccc(N4CCCC4c4cccc(F)c4)nn23)cn1 (stereo not shown)
b. OCC(O)CNc1cccc(-c2cnc3ccc(N4CCCC4c4cccc(F)c4)nn23)n1 (stereo not shown)
c. O=C(O)C1CN(c2cccc(-c3cnc4ccc(N5CCCC5c5cccc(F)c5)nn34)n2)C1 (stereo not shown)
Descending sort on pIC50 required. Kindly provide the labels arranged according to the requested ordering. b, c, a
(b: 8.82, c: 8.52, a: 6.27)

###

Target: Tel-TrkB (Homo sapiens)
Construct: dimerization domain of Tel (ETV6) transcription factor (fusion partner, human ETV6 P41212); expressed in transfected cells; host or cells: luciferase expressing Ba/F3 murine hematopoietic progenitor cells; the other entry of the earlier key: ETV6 (P41212, Transcription factor ETV6)
Assay: Inhibition of proliferation of Ba/F3 cells expressing Tel-TrkB (BaF3/Tel-TrkB)
Type: cell-based
Conditions: Ba/F3 Tel-TrkB cells; read-out: Ba/F3 Tel-TrkB IC 50
ASSAY_METRIC: IC50 (nM)

The cases that follow already have their IC50 on record.
N#Cc1cc(-c2cnc3ccc(N4CCCC4c4cc(F)ccc4F)nn23)ccc1F (centres unmarked) [Table 5-Compound 1]
38
N#Cc1ccc(-c2cnc3ccc(N4CCCC4c4cc(F)ccc4F)nn23)cc1N1CCC(N2CCOCC2)CC1 (centres unmarked) [Table 5-Compound 13]
35
OC1CCN(Cc2cccc(-c3cnc4ccc(N5CCCC5c5cccc(F)c5)nn34)n2)C1 (centres unmarked) [Table 3-Compound 45]
790
O=C(Nc1cnc(-c2cnc3ccc(N4CCCC4c4cccc(F)c4)nn23)cn1)C1CC1 (centres unmarked) [Table 3-Compound 41]
210
[2H]C([2H])([2H])N(C1CCN(c2cccc(-c3cnc4ccc(N5CCC[C@@H]5c5cccc(F)c5)nn34)n2)CC1)C([2H])([2H])[2H] [Table 7-Compound 230]
9

a. CNC(=O)OC1CCN(c2cccc(-c3cnc4ccc(N5CCC[C@@H]5c5cccc(F)c5)nn34)n2)CC1 [Table 7-Compound 185]
b. OCCN1CCN(c2cccc(-c3cnc4ccc(N5CCOCC5c5cccc(F)c5)nn34)n2)CC1 (centres unmarked) [Table 7-Compound 5]
Which record would sort first by descending IC50, a or b ? # respond with the chosen item's label a

P. CN1CCC(Oc2cc(-c3cnc4ccc(N5CCCC5c5cc(F)ccc5F)nn34)ccc2C#N)C1 (centres unmarked) [Table 5-Compound 22]
Q. CC(C)(C)OC(=O)N1CCC(Oc2ncc(-c3cnc4ccc(N5CCCC5c5cccc(F)c5)nn34)cn2)CC1 (centres unmarked) [Table 7-Compound 176]
R. N#Cc1cc(-c2cnc3ccc(N4CCOCC4c4cccc(F)c4)nn23)ccc1F (centres unmarked) [Table 2-Compound 6]
S. CN(C)CCNC(=O)C1CCN(c2cccc(-c3cnc4ccc(N5CCCC5c5cccc(F)c5)nn34)n2)CC1 (centres unmarked) [Table 7-Compound 115]
T. CN1CCC(N2CCN(c3cccc(-c4cnc5ccc(N6CCOCC6c6cccc(F)c6)nn45)n3)CC2)CC1 (centres unmarked) [Table 7-Compound 8]
Order by IC50, ascending. Kindly provide the labels arranged according to the requested ordering. T, S, R, P, Q
(T: 8.8 nM, S: 14 nM, R: 44 nM, P: 88 nM, Q: 971 nM)

P. Fc1cccc(C2CCCCN2c2ccc3ncc(-c4ccc(N5CCOCC5)nc4)n3n2)c1 (centres unmarked) [Table 3-Compound 58]
Q. CN(C)CCN(C)c1cc(-c2cnc3ccc(N4CCCC4c4cc(F)ccc4F)nn23)ccc1C#N (centres unmarked) [Table 5-Compound 23]
From the items above, decide which of P and Q has the lower IC50 reading. # respond with the chosen item's label P

Data origin, for the record: patent US8507488B2
